Quick reference: melting point of the listed items.

Here's what some known entries look like.
{"columns": ["compound", "result"],
 "data": [
  ["CCCC1=C(C(=O)OCC)C(c2ccc3ccccc3c2)c2c[nH]nc2N1.O=C(O)/C=C\\C(=O)O (centres unmarked) [Example 67]", "136 to 138 °C"],
  ["CC(C)C1=C(C#N)C(c2cccc(N3CCOCC3)c2)c2c[nH]nc2N1 (centres unmarked) [Example 365]", "254 to 257 °C"],
  ["CCOC(=O)CCC1=C(C#N)C(c2ccccc2Cl)c2c[nH]nc2N1 (centres unmarked) [Example 254]", "172 to 174 °C"]
]}

What melting point value was documented for this compound, CCC1=C(C#N)C(c2ccccc2Br)c2c[nH]nc2N1 (centres unmarked) [Example 199] ?
250 to 253 °C (dec.)

One more compound: CCCC1=C(C(=O)OCC)C(c2ccccc2Cl)c2cnn(C(C)=O)c2N1 (centres unmarked) [Example 224]
75 to 76 °C

One more compound: CCCC1=C(C#N)C(c2ccccc2Cl)c2c(n[nH]c2C2CCCCC2)N1 (centres unmarked) [Example 311]
> 270 °C

One more compound: CCCC1=C(C#N)C(c2ccccc2Cl)c2cn(C(=O)Nc3ccccc3)nc2N1 (centres unmarked) [Example 284]
167 to 171 °C

One more compound: N#CC1=C(c2ccccc2)Nc2n[nH]cc2C1c1cccc(C(F)(F)F)c1Cl (centres unmarked) [Example 202]
> 250 °C

The origin of these recorded values is patent US6977262B2.
